Every entry's value here was drawn from patent US20240247030A1.

Test system: Karpas299 ALCL cells
PROTOCOL_DESCRIPTION: In vitro cytotoxicity (CellTiter-Glo, 96 h)
Format: cell-based
TEST_SETTINGS: Homo sapiens, KARPAS-299, 96 h, read-out: IC50, Karpas299, ALCL, Table 6; free drug, 96 hours
REPORTED_ENDPOINT: IC50 (nM)

| MOLECULE | UNITS_SYMBOL | VALUE |
| --- | --- | --- |
| CC[C@H](C)[C@H](NC(=O)[C@H]1CCCCN1C)C(=O)N(C)[C@H](C[C@@H](OC(=O)C(C)C)c1nc(C(=O)N[C@@H](Cc2ccccc2)C[C@H](C)C(=O)O)cs1)C(C)C [Compound 157] | nM | 0.011 |
| CCCC(=O)O[C@H](C[C@H](C(C)C)N(C)C(=O)[C@@H](NC(=O)[C@H]1CCCCN1C)[C@@H](C)CC)c1nc(C(=O)N[C@@H](Cc2ccccc2)C[C@H](C)C(=O)O)cs1 [Compound 156] | nM | 0.02 |

* * *

Test system: L428 MDR+ HL cells
PROTOCOL_DESCRIPTION: In vitro cytotoxicity (CellTiter-Glo, 96 h)
Assay type: cell-based
TEST_SETTINGS: Homo sapiens, L-428, 96 h, read-out: IC50, L428, MDR+ HL, Table 6; free drug, 96 hours
REPORTED_ENDPOINT: IC50 (nM)

| COMPOUND | REPORTED_ENDPOINT | VALUE |
| --- | --- | --- |
| CCCC(=O)O[C@H](C[C@H](C(C)C)N(C)C(=O)[C@@H](NC(=O)[C@H]1CCCCN1C)[C@@H](C)CC)c1nc(C(=O)N[C@@H](Cc2ccccc2)C[C@H](C)C(=O)O)cs1 | IC50 | 0.12 |
| CC[C@H](C)[C@H](NC(=O)[C@H]1CCCCN1C)C(=O)N(C)[C@H](C[C@@H](OC(=O)C(C)C)c1nc(C(=O)N[C@@H](Cc2ccccc2)C[C@H](C)C(=O)O)cs1)C(C)C | IC50 | 0.05 |
